# pIC50 measurements, system: CDK-2 (Homo sapiens)
pIC50: −log10 of the molar value.
recorded-endpoint: pIC50

{"columns": ["compound", "value"],
 "data": [
  ["COC(=O)[C@H](Cc1ccc(O)cc1)NC(=O)c1cc(C(=O)O)c2cc(-c3ccc(Cl)cc3)ccc2n1 [Compound 83]", "> 6.00"],
  ["COC(=O)[C@H](Cc1ccc(O)cc1)NC(=O)c1cc(NS(C)(=O)=O)c2cc(-c3cccc(C(F)(F)F)c3)ccc2n1 [Compound 64]", "> 6.00"],
  ["COC[C@H](Cc1ccc(O)cc1)NC(=O)c1cc(C(=O)O)c2cc(C#CCCCN3CCN(C)CC3)ccc2n1 [Compound 220]", "< 4.40"],
  ["NCC[C@H](Cc1ccc(O)cc1)NC(=O)c1cc(C(=O)O)c2cc(CCc3ccccc3)ccc2n1 [Compound 182]", "< 4.40"],
  ["COC[C@H](Cc1ccc(O)cc1)NC(=O)c1cc(C(=O)O)c2cc(-c3cccc(CNC(CO)CO)c3)ccc2n1 [Compound 197]", "< 4.40"],
  ["COC[C@H](Cc1ccc(O)cc1)NC(=O)c1cc(C(=O)O)c2cc(C#Cc3ccccc3C(F)(F)F)ccc2n1 [Compound 148]", "4.40 to 6.00"],
  ["COC(=O)[C@H](Cc1ccc(O)cc1)NC(=O)c1cc(C(=O)O)c2cc(-c3cccc(C(C)=O)c3)ccc2n1 [Compound 104]", "4.40 to 6.00"]
]}

----------
# IC50 measurements, system: CDK-2 (Homo sapiens)

{"columns": ["compound", "IC50"],
 "data": [
  ["NC[C@H](Cc1ccc(O)cc1)NC(=O)c1cc(C(=O)O)c2cc(CCc3ccc(Cl)cc3)ccc2n1 [Compound 97]", "1 to 40 µM"],
  ["CCCCOC(=O)c1cc(C(=O)N[C@H](COC)Cc2ccc(O)cc2)nc2ccc(-c3cccc(C(F)(F)F)c3)cc12 [Compound 177]", "> 40 µM"],
  ["O=C(N[C@@H](Cc1ccc(O)cc1)c1cnco1)c1cc(C(=O)O)c2cc(-c3cccc(C(F)(F)F)c3)ccc2n1 [Compound 99]", "1 to 40 µM"],
  ["COC(=O)[C@H](Cc1ccc(O)cc1)NC(=O)c1cc(C(=O)OCC(N)C(C)C)c2cc(-c3cccs3)ccc2n1 (stereo partly shown) [Compound 228]", "> 40 µM"],
  ["COC[C@H](Cc1ccc(O)cc1)NC(=O)c1cc(C(=O)O)c2cc(C#Cc3ccccn3)ccc2n1 [Compound 125]", "1 to 40 µM"],
  ["COC(=O)[C@H](Cc1cccnc1)NC(=O)c1cc(C(=O)O)c2cc(-c3cccc(C(F)(F)F)c3)ccc2n1 [Compound 164]", "> 40 µM"],
  ["COC[C@H](Cc1ccc(O)cc1)NC(=O)c1cc(C(=O)O)c2cc(COc3ccc(C(F)(F)F)cc3)ccc2n1 [Compound 129]", "1 to 40 µM"],
  ["CNC(=O)[C@H](Cc1ccc(O)cc1)NC(=O)c1cc(C(=O)O)c2cc(/C=C/c3ccc(Cl)cc3)ccc2n1 [Compound 14]", "< 1 µM"],
  ["COC(=O)[C@H](Cc1ccc(O)cc1)NC(=O)c1cc(C(=O)O)c2cc(-c3cccs3)ccc2n1 [Compound 81]", "< 1 µM"],
  ["COC[C@H](Cc1ccc(O)cc1)NC(=O)c1cc(C(=O)OCCO)c2cc(/C=C/c3ccc(Cl)cc3)ccc2n1 [Compound 214]", "> 40 µM"],
  ["COC(=O)[C@H](Cc1ccc(O)cc1)NC(=O)c1cc(C(=O)O)c2cc(-c3cc(C)cc(C)c3)ccc2n1 [Compound 67]", "< 1 µM"],
  ["COC[C@H](Cc1ccc(O)cc1)NC(=O)c1cc(C(=O)O)c2cc(-c3cccc(CN(C)CCO)c3)ccc2n1 [Compound 191]", "> 40 µM"],
  ["COC(=O)[C@H](Cc1ccc(O)cc1)NC(=O)c1cc(C(=O)O)c2cc(-c3ccc(Oc4ccccc4)cc3)ccc2n1 [Compound 51]", "< 1 µM"]
]}
